System: MDA-MB-468
Assay: CTG assay of payloads, MDA-MB-468 cells
Format: cell-based, human
Details: Table 1; 72 h, CellTiter-Glo
READOUT: IC50 (nM)
Give bare numbers, in nM.

Look up IC50 for this compound: CC[C@@]1(O)C(=O)OCc2c1cc1n(c2=O)Cc2c-1nc1cc(F)c(C)c3c1c2[C@@H](NC(=O)CO)CC3 [Dxd, reference compound]
11.6

---

Assay: Human hepatocyte clearance (HHEP CL)
Format: in vitro ADME
Set-up: dose or concentration left out as unconfirmed
Details: both sexes, human, hepatocytes
READOUT: half-life (h)
Numbers only, in h.

Field: example entries. Status: answers known.
CC[C@@]1(O)C(=O)OCc2c1cc1n(c2=O)Cc2c-1nc1cc(F)c(C)c3c1c2[C@@H](CCCO)CC3 (single isomer, unassigned): 1.32
CC[C@@]1(O)C(=O)OCc2c1cc1n(c2=O)Cc2c-1nc1cc(F)c(C)c3c1c2[C@@H](CO)CC3 (single isomer, unassigned): 3.58
CC[C@@]1(O)C(=O)OCc2c1cc1n(c2=O)Cc2c-1nc1cc(F)c(C)c3c1c2[C@](C)(COCCO)CC3 (single isomer, unassigned): 0.75

// input: 2 molecules below; output: half-life for each
1. C=CC[C@@H]1CCc2c(C)c(F)cc3nc4c(c1c23)Cn1c-4cc2c(c1=O)COC(=O)[C@]2(O)CC (single isomer, unassigned)
2. CC[C@@]1(O)C(=O)OCc2c1cc1n(c2=O)Cc2c-1nc1cc(F)c(C)c3c1c2[C@H](CCO)CC3 (single isomer, unassigned)

1: 0.767; 2: 1.13

---

Assay: Human liver microsome clearance (HLM CL)
Assay type: in vitro ADME
Parameters: dose or concentration left out as unconfirmed
Conditions: human, microsomes
Structures can show the parent of a compound that is named as a salt.
READOUT: CLint scaled (mL/min/kg)
Numbers only, in mL/min/kg.

CC[C@@]1(O)C(=O)OCc2c1cc1n(c2=O)Cc2c-1nc1cc(F)c(C)c3c1c2[C@@](C)(CO)CC3 (single isomer, unassigned): 53.8
CC[C@@]1(O)C(=O)OCc2c1cc1n(c2=O)Cc2c-1nc1cc(F)c(C)c3c1c2[C@](C)(N(C)CCO)CC3 (single isomer, unassigned) [Compound 7-45, hydrochloride]: 137
CC[C@@]1(O)C(=O)OCc2c1cc1n(c2=O)Cc2c-1nc1cc(F)c(C)c3c1c2[C@@H](CO)CC3 (single isomer, unassigned): 53.2

// input: 5 compounds below; output: CLint scaled for each
1. CC[C@@]1(O)C(=O)OCc2c1cc1n(c2=O)Cc2c-1nc1cc(F)c(C)c3c1c2[C@](C)(CO)CC3 (single isomer, unassigned)
2. CC[C@@]1(O)C(=O)OCc2c1cc1n(c2=O)Cc2c-1nc1cc(F)c(C)c3c1c2[C@](C)(N1CC[C@H](O)C1)CC3 (single isomer, unassigned)
3. CC[C@@]1(O)C(=O)OCc2c1cc1n(c2=O)Cc2c-1nc1cc(F)c(C)c3c1c2[C@H](CO)CC3 (single isomer, unassigned)
4. CC[C@@]1(O)C(=O)OCc2c1cc1n(c2=O)Cc2c-1nc1cc(F)c(C)c3c1c2[C@](C)(N1CC[C@@H](O)C1)CC3 (single isomer, unassigned)
5. CC[C@@]1(O)C(=O)OCc2c1cc1n(c2=O)Cc2c-1nc1cc(F)c(C)c3c1c2C(CO)(CO)CC3

128
92.5
44
238
46

---

Test: Human hepatocyte clearance (HHEP CL)
Format: in vitro ADME
Parameters: dose or concentration left out as unconfirmed
Conditions: both sexes; Table 1; human hepatocytes; read-out: HHEP (T1/2)
READOUT: half-life (h)
Answers are plain numbers, in h.

Look up half-life for this compound: CC[C@@]1(O)C(=O)OCc2c1cc1n(c2=O)Cc2c-1nc1cc(F)c(C)c3c1c2[C@@](C)(N(C)CCO)CC3.Cl (single isomer, unassigned) [Compound 6-44]
1.33

---

Assay: PAMPA (Parallel Artificial Membrane Permeability Assay)
Assay type: physicochemical
Set-up: dose or concentration left out as unconfirmed
Details: pH 5
Structures can show the parent of a compound that is named as a salt.
Please respond with yes when measured Papp is strictly beneath 500 nm/s, and with no in all other cases.

Illustrative cases are given below, each with its answer.
CC[C@@]1(O)C(=O)OCc2c1cc1n(c2=O)Cc2c-1nc1cc(F)c(C)c3c1c2[C@@H](CO)CC3 (single isomer, unassigned): no
CC[C@@]1(O)C(=O)OCc2c1cc1n(c2=O)Cc2c-1nc1cc(F)c(C)c3c1c2[C@@H](CCCO)CC3 (single isomer, unassigned): yes
CC[C@@]1(O)C(=O)OCc2c1cc1n(c2=O)Cc2c-1nc1cc(F)c(C)c3c1c2[C@@](C)(CCO)CC3 (single isomer, unassigned): yes
CC[C@@]1(O)C(=O)OCc2c1cc1n(c2=O)Cc2c-1nc1cc(F)c(C)c3c1c2[C@](C)(CCO)CC3 (single isomer, unassigned): yes
CC[C@@]1(O)C(=O)OCc2c1cc1n(c2=O)Cc2c-1nc1cc(F)c(C)c3c1c2[C@](C)(N(C)CCO)CC3 (single isomer, unassigned) [Compound 7-45, hydrochloride]: no
CC[C@@]1(O)C(=O)OCc2c1cc1n(c2=O)Cc2c-1nc1cc(F)c(C)c3c1c2[C@@](C)(CO)CC3 (single isomer, unassigned): no

Dear reviewer, please state whether CC[C@@]1(O)C(=O)OCc2c1cc1n(c2=O)Cc2c-1nc1cc(F)c(C)c3c1c2[C@@H](CCO)CC3 (single isomer, unassigned) has Papp strictly beneath 500 nm/s.
yes

Dear reviewer, please state whether CC[C@@]1(O)C(=O)OCc2c1cc1n(c2=O)Cc2c-1nc1cc(F)c(C)c3c1c2[C@](C)(CO)CC3 (single isomer, unassigned) has Papp strictly beneath 500 nm/s.
no

---

Assay: PAMPA (Parallel Artificial Membrane Permeability Assay)
Type: physicochemical
Parameters: dose or concentration left out as unconfirmed
Conditions: pH 5
READOUT: Papp (nm/s)
Answers are plain numbers, in nm/s.

CC[C@@]1(O)C(=O)OCc2c1cc1n(c2=O)Cc2c-1nc1cc(F)c(C)c3c1c2[C@H](CCO)CC3 (single isomer, unassigned): 29

// input: 3 compounds below; output: Papp for each
1. CC[C@@]1(O)C(=O)OCc2c1cc1n(c2=O)Cc2c-1nc1cc(F)c(C)c3c1c2[C@@](C)(CCCO)CC3 (single isomer, unassigned)
2. CC[C@@]1(O)C(=O)OCc2c1cc1n(c2=O)Cc2c-1nc1cc(F)c(C)c3c1c2[C@@](C)(COCCO)CC3 (single isomer, unassigned)
3. CC[C@@]1(O)C(=O)OCc2c1cc1n(c2=O)Cc2c-1nc1cc(F)c(C)c3c1c2[C@](C)(CCCO)CC3 (single isomer, unassigned)

1: 455; 2: 477; 3: 165

Look up Papp for this compound: CC[C@@]1(O)C(=O)OCc2c1cc1n(c2=O)Cc2c-1nc1cc(F)c(C)c3c1c2[C@H](CO)CC3 (single isomer, unassigned)
404

---

Assay: PAMPA (Parallel Artificial Membrane Permeability Assay)
Type: physicochemical
Design: dose or concentration left out as unconfirmed
Details: Table 1, pH 5.0, read-out: PAMPA Pe pH 5.0
READOUT: Papp (×10⁻⁶ cm/s)
Numbers only, in ×10⁻⁶ cm/s.

Look up Papp for this molecule: CC[C@@]1(O)C(=O)OCc2c1cc1n(c2=O)Cc2c-1nc1cc(F)c(C)c3c1c2[C@@](C)(N(C)CCO)CC3.Cl (single isomer, unassigned) [Compound 6-44]
54.9

---

Experiment: Human hepatocyte clearance (HHEP CL)
Format: in vitro ADME
Set-up: dose or concentration left out as unconfirmed
Conditions: both sexes, human, hepatocytes
# cutoff 1 h applies to half-life; >= gives y, < gives n

Illustrative cases are given below, each with its answer.
CC[C@@]1(O)C(=O)OCc2c1cc1n(c2=O)Cc2c-1nc1cc(F)c(C)c3c1c2[C@@](C)(CCO)CC3 (single isomer, unassigned): n
CC[C@@]1(O)C(=O)OCc2c1cc1n(c2=O)Cc2c-1nc1cc(F)c(C)c3c1c2[C@](C)(CCCO)CC3 (single isomer, unassigned): y
CC[C@@]1(O)C(=O)OCc2c1cc1n(c2=O)Cc2c-1nc1cc(F)c(C)c3c1c2[C@H](CCCO)CC3 (single isomer, unassigned): y

Tell me whether half-life is at least 1 h here: CC[C@@]1(O)C(=O)OCc2c1cc1n(c2=O)Cc2c-1nc1cc(F)c(C)c3c1c2[C@](C)(CO)CC3 (single isomer, unassigned)
y

---

Experiment: PAMPA (Parallel Artificial Membrane Permeability Assay)
Format: physicochemical
Design: dose or concentration left out as unconfirmed
Conditions: pH 7.4
READOUT: Papp (×10⁻⁶ cm/s)
Numbers only, in ×10⁻⁶ cm/s.

// input: 3 compounds below; output: Papp for each
1. CC[C@@]1(O)C(=O)OCc2c1cc1n(c2=O)Cc2c-1nc1cc(F)c(C)c3c1c2[C@@](C)(CO)CC3 (single isomer, unassigned) [Compound 3-28]
2. CC[C@@]1(O)C(=O)OCc2c1cc1n(c2=O)Cc2c-1nc1cc(F)c(C)c3c1c2[C@](C)(CCCO)CC3 (single isomer, unassigned) [Compound 15-75]
3. CC[C@@]1(O)C(=O)OCc2c1cc1n(c2=O)Cc2c-1nc1cc(F)c(C)c3c1c2[C@H](CO)CC3 (single isomer, unassigned) [Compound 1-16]

1: 8.4; 2: 11.5; 3: 8.5
